FYI, the data here is from ChEMBL document CHEMBL4406862.

test: Lipophilicity, log k of compound in DMPC/buffer incubated for 30 mins by spectrophotometry; type: physicochemical; details: 0.5 h
Property Measured: log Kp
Please state the value as a number alone, without comment.

// known answers, use as guide
>  <Compound>
O=C(/C=C/c1cc(Cl)cc(Cl)c1)c1cccs1

>  <log Kp>
4.33

$$$$
>  <Compound>
COc1ccc(C(=O)/C=C/c2ccc(Cl)c(Cl)c2)cc1OC

>  <log Kp>
3.14

$$$$
>  <Compound>
COc1ccc(C(=O)/C=C/c2cc(Cl)cc(Cl)c2)cc1OC

>  <log Kp>
4.1

$$$$
>  <Compound>
COc1cc(/C=C/C(=O)c2cccs2)cc(OC)c1

>  <log Kp>
3.41

$$$$

Turning to the following compound.
# log Kp of `COc1cc(/C=C/C(=O)c2cc3ccccc3s2)cc(OC)c1OC` = 3.68

====

assay: Antiproliferative activity against human A375-C5 cells assessed as reduction in cell viability incubated for 48 hrs by sulforhodamine B assay; assay type: functional; conditions: A375-C5, 48 h
// reported log10(GI50) for each item listed
Plainly stated, the numbers are log10 of GI50 given in µM.

>  <Compound>
Cc1csc(C(=O)/C=C/c2cc(Cl)cc(Cl)c2)c1

>  <Quantitative Readout>
0.85

$$$$
>  <Compound>
COc1cc(/C=C/C(=O)c2cc(C)cs2)cc(OC)c1

>  <Quantitative Readout>
0.52

$$$$
>  <Compound>
COc1ccc(C(=O)/C=C/c2cc(OC)c(OC)c(OC)c2)cc1OC

>  <Quantitative Readout>
0.46

$$$$
>  <Compound>
COc1ccc(/C=C/C(=O)c2cc(C)cs2)cc1OC

>  <Quantitative Readout>
1.05

$$$$
>  <Compound>
COc1cc(/C=C/C(=O)c2cc3cccc(O)c3o2)cc(OC)c1OC

>  <Quantitative Readout>
0.93

$$$$

# log10(GI50) of COc1cc(C2OC2C(=O)c2cccs2)cc(OC)c1OC (centres undefined) = 1.59

# log10(GI50) of `COc1cc(/C=C/C(=O)c2cc3ccccc3s2)cc(OC)c1OC` = 0.84

# log10(GI50) of `COc1ccc(C(=O)/C=C/c2ccc(Cl)c(Cl)c2)cc1OC` = 0.62

# log10(GI50) of `COc1cc(-c2cc(-c3cc(C)cs3)n[nH]2)cc(OC)c1OC` = 1.21

# log10(GI50) of `COc1cc(/C=C/C(=O)c2cccs2)cc(OC)c1` = 0.62

# log10(GI50) of COc1cc(C2OC2C(=O)c2cc(C)cs2)cc(OC)c1OC (centres undefined) = 0.82

# log10(GI50) of `Cc1csc(C(=O)/C=C/c2ccc(Cl)c(Cl)c2)c1` = 1.08

# log10(GI50) of `COc1cc(OC)c(OC)cc1/C=C/C(=O)c1cc(C)cs1` = 0.84

# log10(GI50) of `COc1cc(/C=C/C(=O)c2cccs2)cc(OC)c1OC` = 0.56

# log10(GI50) of `O=C(/C=C/c1ccc(Cl)c(Cl)c1)c1cccs1` = 0.86

# log10(GI50) of `COc1ccc(/C=C/C(=O)c2cccs2)cc1OC` = 1.25

# log10(GI50) of `COc1ccc(C(=O)/C=C/c2cc(Cl)cc(Cl)c2)cc1OC` = 0.65

# log10(GI50) of `COc1cc(/C=C/C(=O)c2ccc(C)s2)cc(OC)c1OC` = 0.76

====

experiment: n-Octanol/water partition coefficient, log P of the compound incubated for 30 mins by spectrophotometry; assay type: physicochemical
// reported logP at 0.5 h for each item listed

>  <Compound>
COc1cc(/C=C/C(=O)c2ccc(OC)c(OC)c2)cc(OC)c1

>  <Result>
3.35

$$$$

# logP at 0.5 h of `COc1ccc(C(=O)/C=C/c2cc(Cl)cc(Cl)c2)cc1OC` = 4.54

# logP at 0.5 h of `COc1ccc(C(=O)/C=C/c2cc(OC)c(OC)c(OC)c2)cc1OC` = 3.22

# logP at 0.5 h of `COc1ccc(/C=C/C(=O)c2cccs2)cc1OC` = 3.07

# logP at 0.5 h of `COc1cc(OC)c(OC)cc1/C=C/C(=O)c1ccc(OC)c(OC)c1` = 3.24

# logP at 0.5 h of `COc1cc(/C=C/C(=O)c2cc3cccc(O)c3o2)cc(OC)c1OC` = 3.22

# logP at 0.5 h of `Cc1csc(C(=O)/C=C/c2cc(Cl)cc(Cl)c2)c1` = 4.67

# logP at 0.5 h of `COc1cc(OC)c(OC)cc1/C=C/C(=O)c1cccs1` = 3.02

# logP at 0.5 h of `Cc1csc(C(=O)/C=C/c2ccc(Cl)c(Cl)c2)c1` = 4.65

# logP at 0.5 h of `COc1cc(/C=C/C(=O)c2cc(C)cs2)cc(OC)c1OC` = 3.29

# logP at 0.5 h of `COc1cc(/C=C/C(=O)c2cccs2)cc(OC)c1OC` = 2.99

# logP at 0.5 h of `COc1cc(/C=C/C(=O)c2cc3ccccc3s2)cc(OC)c1OC` = 4.19

# logP at 0.5 h of `COc1cc(/C=C/C(=O)c2cccs2)cc(OC)c1` = 3.14

# logP at 0.5 h of `O=C(/C=C/c1cc(Cl)cc(Cl)c1)c1cccs1` = 4.38

# logP at 0.5 h of `COc1cc(-c2cc(-c3cc(C)cs3)n[nH]2)cc(OC)c1OC` = 3.27

# logP at 0.5 h of COc1cc(C2OC2C(=O)c2cccs2)cc(OC)c1OC (stereo not given) = 2.51

====

assay: Antiproliferative activity against human A375-C5 cells assessed as reduction in cell viability incubated for 48 hrs by sulforhodamine B assay; assay type: functional; conditions: A375-C5, 48 h
Returns: string. Value is Satisfied if measured GI50 is below 5 µM, and Not satisfied if it is greater than or equal to it.

>  <Smiles Notation>
COc1cc(OC)c(OC)cc1/C=C/C(=O)c1cccs1

>  <Class Name>
Not satisfied

$$$$
>  <Smiles Notation>
COc1ccc(/C=C/C(=O)c2ccc(OC)c(OC)c2)cc1OC

>  <Class Name>
Satisfied

$$$$
>  <Smiles Notation>
COc1cc(OC)c(OC)cc1/C=C/C(=O)c1ccc(OC)c(OC)c1

>  <Class Name>
Not satisfied

$$$$

stdin: Identify whether the compound `O=C(/C=C/c1cc(Cl)cc(Cl)c1)c1cccs1` records GI50 below 5 µM.
stdout: Not satisfied

stdin: Identify whether the compound `COc1cc(/C=C/C(=O)c2ccc(OC)c(OC)c2)cc(OC)c1` records GI50 below 5 µM.
stdout: Satisfied

stdin: Identify whether the compound `COc1cc(/C=C/C(=O)c2cc(C)cs2)cc(OC)c1OC` records GI50 below 5 µM.
stdout: Satisfied

====

test: Lipophilicity, log k of compound in DMPC/buffer incubated for 30 mins by spectrophotometry; type: physicochemical; conditions: 0.5 h
// reported log Kp for each item listed
Please state the value as a number alone, without comment.

>  <Molecule>
COc1cc(/C=C/C(=O)c2cccs2)cc(OC)c1OC

>  <log Kp>
3.49

$$$$

# log Kp of `COc1cc(OC)c(OC)cc1/C=C/C(=O)c1ccc(OC)c(OC)c1` = 3.35

# log Kp of `COc1cc(/C=C/C(=O)c2cc3cccc(O)c3o2)cc(OC)c1OC` = 4.29

# log Kp of `COc1cc(OC)c(OC)cc1/C=C/C(=O)c1cc(C)cs1` = 3.6

====

// reported logP at 0.5 h for each item listed
experiment: n-Octanol/water partition coefficient, log P of the compound incubated for 30 mins by spectrophotometry; format: physicochemical
Please state the value as a number alone, without comment.

// known answers, use as guide
>  <Molecule>
COc1cc(-c2cc(-c3cccs3)n[nH]2)cc(OC)c1OC

>  <logP at 0.5 h>
2.99

$$$$
>  <Molecule>
COc1cc(/C=C/C(=O)c2ccc(C)s2)cc(OC)c1OC

>  <logP at 0.5 h>
3.23

$$$$

# logP at 0.5 h of `COc1cc(/C=C/C(=O)c2cc(C)cs2)cc(OC)c1` = 3.43

# logP at 0.5 h of `COc1ccc(/C=C/C(=O)c2cc(C)cs2)cc1OC` = 3.4

# logP at 0.5 h of `COc1cc(OC)c(OC)cc1/C=C/C(=O)c1cc(C)cs1` = 3.31

# logP at 0.5 h of `O=C(/C=C/c1ccc(Cl)c(Cl)c1)c1cccs1` = 4.35

# logP at 0.5 h of COc1cc(C2OC2C(=O)c2cc(C)cs2)cc(OC)c1OC (centres undefined) = 2.5

# logP at 0.5 h of `COc1ccc(C(=O)/C=C/c2ccc(Cl)c(Cl)c2)cc1OC` = 4.52

# logP at 0.5 h of `COc1ccc(/C=C/C(=O)c2ccc(OC)c(OC)c2)cc1OC` = 3.27
